Items are presented alongside their recorded koff.
Target: cynomolgus monkey EpoR (cynoEpoR) (cynomolgus monkey)
Sequence (chain, as listed by the source): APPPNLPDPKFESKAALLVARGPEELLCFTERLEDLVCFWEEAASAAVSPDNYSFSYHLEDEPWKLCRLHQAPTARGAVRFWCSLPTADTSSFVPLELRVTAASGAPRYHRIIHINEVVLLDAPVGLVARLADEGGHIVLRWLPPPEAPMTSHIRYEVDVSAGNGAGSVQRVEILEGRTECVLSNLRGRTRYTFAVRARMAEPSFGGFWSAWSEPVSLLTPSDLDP
Assay: SPR, Biacore T100; scFv-Fc captured by anti-human IgG Fc on CM5 chip, EpoR as analyte

# binder, scaleUnit, koff
measured = [
    ("clone 307 scFv-Fc protein (Fc fusion, part only; not given: scFv linker and IgG1 Fc, not shown: a dimerising Fc or GST) scFv, part: EVQLVESGGGLVQPGGSLRLSCAVSGFTFSKYWMTWVRQAPGKGLEWVANIKPDGSEKYYVESVKGRFTISRDNAKNSVYLQMNSVRAEDTAVYYCARVSRGGSFSDWGQGTMVTVSSQSVLTQPPSASGSPGQSVTISCTGTSSDVGGYNYVSWYQQHPDKAPRLMIYDVNKRPSGVPDRFSGSKSGNTASLTVSGLQAEDEAHYYCNSYAGSNNWVFGGGTQLTVL", "s⁻¹", 0.361),
    ("clone 13 scFv-Fc protein (Fc fusion, part only; not given: scFv linker and IgG1 Fc, not shown: a dimerising Fc or GST) scFv, part: QVQLQQSGGGVVQPGRSLRLSCAASGFTFSDYAMHWVRQAPGKGLEWVAVISNHGKSTYYADSVKGRFTISRDNSKHMLYLQMNSLRADDTALYYCARDIALAGDYWGQGTLVTVSADIQMTQSPSSLSASVGDRVTITCRASQSISSYLNWYQQLPGKVPKLLIYGASKLQSGVPSRFSGSGSGTDFTLTISSLQPEDFATYYCLQDYNYPLTFGPGTRLEIK", "s⁻¹", 0.0597),
    ("clone 319 scFv-Fc protein (Fc fusion, part only; not given: Linker and IgG1 Fc, not shown: another chain or arm of the molecule; a dimerising Fc or GST; small tags and cut ends) VH: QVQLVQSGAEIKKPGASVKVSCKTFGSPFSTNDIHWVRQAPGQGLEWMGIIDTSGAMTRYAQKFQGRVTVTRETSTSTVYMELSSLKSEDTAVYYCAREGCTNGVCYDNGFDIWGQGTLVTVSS VL: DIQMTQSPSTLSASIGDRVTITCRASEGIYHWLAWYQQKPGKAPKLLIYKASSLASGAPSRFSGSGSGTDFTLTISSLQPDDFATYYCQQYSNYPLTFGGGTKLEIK", "s⁻¹", 0.0258),
    ("clone 295 scFv-Fc protein (Fc fusion, part only; not given: scFv linker and IgG1 Fc, not shown: a dimerising Fc or GST) scFv, part: EVQLVESGGGLVQPGGSLRLSCAASGFTFSSYAMSWVRQAPGKGLEWVSGISGSGSSEGGTYYADSVKGRFTLSRDNSKNTLYLQMNSLRAEDTALYYCVKDRPSRYSFGYYFDYWGRGTLVTVSSLPVLTQPPSVSVSPGQTASIACSGNKLGDKYVSWYQQKPGQSPLLVIYQDTKRPSGIPERFSGSNSGNTATLTISGTQAMDEADYYCQAWDSSTDVVFGGGTKLTVL", "s⁻¹", 0.0221),
]
